- experimentalSystem: Isoform 2 of Nuclear receptor ROR-alpha (Alpha-2) (Homo sapiens)
- Sequence (P35398 whole entry): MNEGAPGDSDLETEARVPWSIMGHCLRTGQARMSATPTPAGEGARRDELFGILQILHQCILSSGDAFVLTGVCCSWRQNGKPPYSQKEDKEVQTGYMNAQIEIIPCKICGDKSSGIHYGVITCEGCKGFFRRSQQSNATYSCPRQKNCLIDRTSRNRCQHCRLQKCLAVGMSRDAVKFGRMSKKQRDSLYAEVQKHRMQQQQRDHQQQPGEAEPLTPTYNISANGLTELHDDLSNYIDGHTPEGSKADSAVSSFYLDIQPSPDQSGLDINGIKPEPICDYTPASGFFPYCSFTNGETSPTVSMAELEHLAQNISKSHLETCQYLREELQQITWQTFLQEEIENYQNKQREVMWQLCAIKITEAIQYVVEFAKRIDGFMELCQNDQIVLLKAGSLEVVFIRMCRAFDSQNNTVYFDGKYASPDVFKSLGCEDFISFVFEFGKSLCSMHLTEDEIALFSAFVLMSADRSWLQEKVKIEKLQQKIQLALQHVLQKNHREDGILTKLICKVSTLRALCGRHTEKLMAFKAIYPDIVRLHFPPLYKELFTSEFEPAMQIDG
- method: activators of RORA ligand-binding domain fusion – cell-based, CHO-K1, Gal4-RORA LBD, luciferase luminescence, counter-screen for SF-1 activator project, dose response (AID 675)
metricName: EC50 (nM)
State the answer as a number, implicitly in nM.

// below: answered compounds
compound | readoutUnits | EC50
O=C(COc1ncnc2ccccc12)c1ccc2c(c1)OCCO2 | nM | 615
OCCOCCNc1ncnc2c1cnn2-c1ccc(Cl)cc1 | nM | 595
COc1ccc(C(=O)CC=Nc2cccc(C)n2)cc1OC | nM | 749
CCCCC1CCC(c2nc(-c3ccccn3)no2)CC1 (stereo not drawn) | nM | 403
N#CCc1ccc(NC(=O)Nc2cccc(Cl)c2)cc1 | nM | 1650
CCOC(=O)c1cc2cc(OC)ccc2[nH]1 | nM | 1570
Nc1nc2c(s1)CCc1c-2cnn1-c1ccccc1 | nM | 551
O=C(Nc1ccc(CN2CCOCC2)cc1)c1cc2ccccc2o1 | nM | 480

query: I would be grateful if you could share the reported EC50 for O=c1c2ccccc2nnn1CSc1nnc(COc2ccc(Cl)cc2)n1Cc1ccco1 .
result: 3690

query: Proceed to COc1ccccc1Nc1nc2ccccc2[nH]1
result: 1620

query: Proceed to O=C(Nc1ccc(NC(=O)c2cccs2)cn1)c1ccco1
result: 2710

query: Proceed to O=C(Nc1ccc(-c2cn3ccsc3n2)cc1)C1CC1
result: 653
